Target: T1, human myostatin (mature, recombinant; R&D Systems) (human, UniProt O14793 267-375)
T1 sequence: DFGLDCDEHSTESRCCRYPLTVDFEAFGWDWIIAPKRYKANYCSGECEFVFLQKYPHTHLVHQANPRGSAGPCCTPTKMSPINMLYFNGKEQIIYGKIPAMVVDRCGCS
Experiment: cell-based or functional assay
PARAMETER MEASURED: ARE-luciferase IC50 (nM)

[
  {
    "BINDER": "2987_G04 (designed binder) MGVSDVPRDLEVVAATPTSLLISWSLPYPGHLNYYRITYGETGGNSPVQEFTVPGRGVTATISGLKPGVDYTITVYAVTLTKSKVIHYMPISINYRTEIDKPSQHHHHHH",
    "PARAMETER MEASURED": "ARE-luciferase IC50",
    "VALUE MEASURED": 0.09
  }
]

I: 2987_H07 (designed binder) MGVSDVPRDLEVVAATPTSLLISWTLPHAGRAHYYRITYGETGGNSPVQEFTVPGRGVTATISGLKPGVDYTITVYAVTVTTTKVIHYKPISINYRTEIDKPSQHHHHHH
II: 2987_E03 (designed binder) MGVSDVPRDLEVVAATPTSLLISWSLPYPGHLNYYRITYGETGGNSPVQEFTVPGRGVTATISGLKPGVDYTITVYAVTLTRSKIIHYMPISINYRTEIDKPSQHHHHHH
Sorting by ARE-luciferase IC50 in descending order, would I or II appear first? Mark your answer with the label of the selected entry.
II
